Recorded values, source ChEMBL document CHEMBL3137667.

Details: human
MEASURE NAME: Hepatotoxicity (choleostasis)
Response field accepts a number only; no unit should be typed.

Some molecules with known Hepatotoxicity (choleostasis) results, for comparison:
MOLECULE	Hepatotoxicity (choleostasis)
C[C@@](Cc1ccc(O)c(O)c1)(NN)C(=O)O.O	1
CCN1CCN(C(=O)N[C@@H](C(=O)N[C@@H]2C(=O)N3[C@@H]2SC(C)(C)[C@@H]3C(=O)O)c2ccccc2)C(=O)C1=O.C[C@]1(Cn2ccnn2)[C@H](C(=O)O)N2C(=O)C[C@H]2S1(=O)=O	0

## Input Form field: reported Hepatotoxicity (choleostasis) of CN1CCN(C2=Nc3ccccc3Oc3ccc(Cl)cc32)CC1
## Output 1

## Input Form field: reported Hepatotoxicity (choleostasis) of CCC1(c2ccccc2)C(=O)NC(=O)NC1=O
## Output 4

## Input Form field: reported Hepatotoxicity (choleostasis) of CN(C)CC/C=C1/c2ccccc2Sc2ccc(Cl)cc21
## Output 1

## Input Form field: reported Hepatotoxicity (choleostasis) of CCCCCCCCCCCCCCCCOP(=O)([O-])OCC[N+](C)(C)C
## Output 0

## Input Form field: reported Hepatotoxicity (choleostasis) of CO[C@@]1(NC(=O)C(C(=O)[O-])c2ccc(O)cc2)C(=O)N2C(C(=O)[O-])=C(CSc3nnnn3C)CO[C@@H]21.[Na+].[Na+] (some centres not stated) [MOXALACTAM DISODIUM]
## Output 1

## Input Form field: reported Hepatotoxicity (choleostasis) of CCC1=C(C)CN(C(=O)NCCc2ccc(S(=O)(=O)NC(=O)N[C@H]3CC[C@H](C)CC3)cc2)C1=O [GLIMEPIRIDE]
## Output 1

## Input Form field: reported Hepatotoxicity (choleostasis) of CN(N=O)C(=O)N[C@@H](C=O)[C@@H](O)[C@H](O)[C@H](O)CO
## Output 0

## Input Form field: reported Hepatotoxicity (choleostasis) of CCOC(N)=O
## Output 1

## Input Form field: reported Hepatotoxicity (choleostasis) of CCc1cccc2c3c([nH]c12)C(CC)(CC(=O)O)OCC3 (configuration not stated)
## Output 2

## Input Form field: reported Hepatotoxicity (choleostasis) of COc1ccc2nc(NC(=O)Nc3ccccc3)sc2c1
## Output 0

---

Each entry below lists one item and its recorded Hepatotoxicity (acute) value.
Conditions: human, serum
Response field accepts a number only; no unit should be typed.

COMPOUND	Hepatotoxicity (acute)
Nc1ccc(O)c(C(=O)O)c1	12
CC/C=C(\C(=O)N[C@@H]1C(=O)N2C(C(=O)OCOC(=O)C(C)(C)C)=C(COC(N)=O)CS[C@H]12)c1csc(N)n1	0
CC[C@]1(O)C[C@H]2CN(CCc3c([nH]c4ccccc34)[C@@](C(=O)OC)(c3cc4c(cc3OC)N(C=O)[C@H]3[C@@](O)(C(=O)OC)[C@H](OC(C)=O)[C@]5(CC)C=CCN6CC[C@]43[C@@H]65)C2)C1	5
Fc1ccc([C@@H]2CCNC[C@H]2COc2ccc3c(c2)OCO3)cc1	8

## Input Form field: reported Hepatotoxicity (acute) of Cc1c(O)c(=O)ccn1C
## Output 1

## Input Form field: reported Hepatotoxicity (acute) of C[C@]12CC[C@@H]3c4ccc(OS(=O)(=O)O)cc4CC[C@H]3[C@@H]1CCC2=O
## Output 1

## Input Form field: reported Hepatotoxicity (acute) of CC1CCCC(C)N1CCCC(O)(c1ccccc1)c1ccccn1 (stereo not given)
## Output 0

## Input Form field: reported Hepatotoxicity (acute) of CCOC(=O)[C@H](CCc1ccccc1)N[C@H]1CCCN2CCC[C@@H](C(=O)O)N2C1=O
## Output 0

## Input Form field: reported Hepatotoxicity (acute) of OCCN1CCN(CCCN2c3ccccc3Sc3ccc(C(F)(F)F)cc32)CC1
## Output 5

## Input Form field: reported Hepatotoxicity (acute) of O=C(CCOCCOCCOCCOCCC(=O)Nc1c(I)cc(I)c(C(=O)O)c1I)Nc1c(I)cc(I)c(C(=O)O)c1I
## Output 1

---

Experiment: Highest frequency of acute liver toxicity observed during clinical trials, expressed as a percentage. [column '% AIGUE' in source]
Settings: human
Each entry below lists one item and its recorded Hepatotoxicity (acute) value.
# number only, unit % dropped from output

Some molecules with known Hepatotoxicity (acute) results, for comparison:
MOLECULE	UNIT ABBREV	Hepatotoxicity (acute)
NC(=O)c1ncn([C@@H]2O[C@H](CO)[C@@H](O)[C@H]2O)n1 [RIBAVIRIN]	%	0
COc1cc(NS(=O)(=O)c2ccc(N)cc2)nc(OC)n1 [SULFADIMETHOXINE]	%	0
CC(OC(=O)OC1CCCCC1)OC(=O)C1=C(CSc2nnnn2CCN(C)C)CS[C@@H]2[C@H](NC(=O)Cc3csc(N)n3)C(=O)N12 (stereo partly specified)	%	0
N=C(N)NCCCCCCC(=O)NC(O)C(=O)NCCCCNCCCN (stereo unspecified)	%	0
NCC(=O)CCC(=O)O [AMINOLEVULINIC ACID]	%	0
CC(C)[C@](O)(C(=O)OCC1=CC[N+]2([O-])CC[C@@H](O)[C@@H]12)[C@H](C)O (stereo partly specified) [INDICINE N-OXIDE]	%	22.7
COC(=O)C1=C(C)NC(C)=C(C(=O)O[C@H]2CCN(Cc3ccccc3)C2)[C@H]1c1cccc([N+](=O)[O-])c1 [BARNIDIPINE]	%	0
CN1CCN(CCCN2c3ccccc3Sc3ccc(S(=O)(=O)N(C)C)cc32)CC1 [THIOPROPERAZINE]	%	0

## Input Form field: reported Hepatotoxicity (acute) of CC1(C)S[C@@H]2[C@H](NC(=O)C(C(=O)O)c3ccccc3)C(=O)N2[C@H]1C(=O)O (stereo partly specified) [CARBENICILLIN]
## Output 0.7

## Input Form field: reported Hepatotoxicity (acute) of CC(=N)N1CC[C@H](SC2=C(C(=O)O)N3C(=O)[C@H]([C@@H](C)O)[C@H]3C2)C1.O=C(O)CCNC(=O)c1ccccc1
## Output 0

## Input Form field: reported Hepatotoxicity (acute) of CC(C)(Oc1ccc(Cl)cc1)C(=O)NC(=O)NCN1CCOCC1 [PLAFIBRIDE]
## Output 0

---

Experiment: Proposed mechanism(s) of liver damage. [column 'MEC' in source]
Conditions: human
MEASURE NAME: Hepatotoxicity (mechanism)

COMPOUND	Hepatotoxicity (mechanism)
CCCC(C)C1(CC)C(=O)NC(=S)NC1=O (stereo not given)	Dose-dependant
CC1=C(C(=O)O)N2C(=O)[C@@H](NC(=O)[C@H](N)C3=CCC=CC3)[C@H]2SC1	Allergic
CCCCc1oc2ccccc2c1C(=O)c1cc(I)c(OCCN(CC)CC)c(I)c1	Allergic, Dose-dependant
CC[C@H]1OC(=O)[C@H](C)[C@@H](O[C@H]2C[C@@](C)(OC)[C@@H](O)[C@H](C)O2)[C@H](C)[C@@H](O[C@@H]2O[C@H](C)C[C@H](N(C)C)[C@H]2O)[C@](C)(OC)C[C@@H](C)C(=O)[C@H](C)[C@@H](O)[C@]1(C)O	Allergic, Dose-dependant
CN1CCN(C2=Nc3cc(Cl)ccc3Nc3ccccc32)CC1	Dose-dependant
CC1CCc2cc(F)cc3c(=O)c(C(=O)O)cn1c23 (stereo not given)	Allergic

## Input Form field: reported Hepatotoxicity (mechanism) of CN1C(=O)CCS(=O)(=O)C1c1ccc(Cl)cc1 (stereo not given)
## Output Allergic, Dose-dependant

## Input Form field: reported Hepatotoxicity (mechanism) of Cc1c(N(C)C)c(=O)n(-c2ccccc2)n1C
## Output Dose-dependant

---

Settings: human
MEASURE NAME: Hepatotoxicity (severe hepatitis)

COMPOUND	Hepatotoxicity (severe hepatitis)
CC(C)(C)C(=O)OCOC(=O)[C@@H]1N2C(=O)[C@@H](NC(=O)[C@H](N)c3ccccc3)[C@H]2SC1(C)C	0

## Input Form field: reported Hepatotoxicity (severe hepatitis) of Nc1nnc(-c2cccc(Cl)c2Cl)c(N)n1
## Output 9

## Input Form field: reported Hepatotoxicity (severe hepatitis) of O=C(CCOCCOCCOCCOCCC(=O)Nc1c(I)cc(I)c(C(=O)O)c1I)Nc1c(I)cc(I)c(C(=O)O)c1I
## Output 0

## Input Form field: reported Hepatotoxicity (severe hepatitis) of C[C@@H]1C[C@H]2[C@@H]3CCC4=CC(=O)C=C[C@]4(C)[C@@]3(F)[C@@H](O)C[C@]2(C)[C@@]1(O)C(=O)CO
## Output 0

---

Experiment: Times to onset, minimal and maximal, observed in the indexed observations. [column 'DELAI' in source]
Conditions: human
MEASURE NAME: Hepatotoxicity (time to onset)

MOLECULE	ENDPOINT RESULT
C=C1c2cccc(O)c2C(=O)C2=C(O)[C@]3(O)C(=O)C(C(N)=O)=C(O)[C@@H](N(C)C)[C@@H]3[C@@H](O)[C@H]12	7 months - 1 year
O=C1C(O)=C([C@H]2CC[C@H](c3ccc(Cl)cc3)CC2)C(=O)c2ccccc21	10 days - 6 weeks
C=CC(N)CCC(=O)O (configuration not stated)	9 months
CN(C)CCCN1c2ccccc2CCc2ccc(Cl)cc21	1 week - 4 years
CCOC(=O)C(C)(C)Oc1ccc(Cl)cc1 [CLOFIBRATE]	2 months - 7 years

## Input Form field: reported Hepatotoxicity (time to onset) of CCN1CCN(C(=O)N[C@@H](C(=O)N[C@@H]2C(=O)N3C(C(=O)O)=C(CSc4nnnn4C)CS[C@H]23)c2ccc(O)cc2)C(=O)C1=O
## Output 23 days

## Input Form field: reported Hepatotoxicity (time to onset) of Cc1ccnc2c1NC(=O)c1cccnc1N2C1CC1
## Output 8 days - 3 years

## Input Form field: reported Hepatotoxicity (time to onset) of COc1cc2nc(N3CCN(C(=O)C4CCCO4)CC3)nc(N)c2cc1OC (configuration not stated)
## Output 4 months

## Input Form field: reported Hepatotoxicity (time to onset) of CC(NCCc1ccc(O)cc1)C(O)c1ccc(O)cc1 (configuration not stated)
## Output 4 days - 9 weeks

## Input Form field: reported Hepatotoxicity (time to onset) of O=C(O)c1cn(C2CC2)c2cc(N3CCNCC3)c(F)cc2c1=O
## Output 2 days - 6 months

## Input Form field: reported Hepatotoxicity (time to onset) of CC(=O)S[C@@H]1CC2=CC(=O)CC[C@]2(C)[C@H]2CC[C@@]3(C)[C@@H](CC[C@@]34CCC(=O)O4)[C@H]12
## Output 6 weeks - 2 months
